Data origin: a melting point compilation (Tetko et al.; mined from patent text by program, amines drawn as free bases though some values may be those of a salt)

resultType: melting point

// below: answered compounds
Ask: Recorded melting point of O=C1N[C@H](Cc2ccc(C(F)(F)F)cc2)[C@H](c2ccc(F)c(F)c2)O1 (racemic) , please.
Reply: 157 to 158 °C

Ask: Input C=CCOC(=O)C1CC(=O)N(C2CC(C)(C)N(C)C(C)(C)C2)C1 (configuration not stated)
Reply: 48 to 49 °C

Ask: Input CC(=O)Nc1c(C(=O)c2cc(C)ccn2)[nH]c2cc(Cl)ccc12
Reply: 187 to 188 °C

Further cases:
Ask: Recorded melting point of C=CCN1C(=O)c2cscc2Nc2ccccc21 , please.
Reply: 105 to 106 °C

Ask: Input Cc1noc(NS(=O)(=O)c2ccccc2-c2ccc(C(F)(F)F)cc2)c1C
Reply: 57 to 62 °C

Ask: Input Cc1cccc2c1CN(S(C)(=O)=O)CCS2
Reply: 128 to 130 °C

Ask: Input CCCc1n[nH]c(CCC)n1
Reply: 69 to 70 °C

Ask: Input CNc1c(Cl)cc2c3c(cccc13)C(=O)N(C1CCN(C)CC1)C2=O
Reply: 298 to 302 °C

Ask: Input COc1cc(OC)cc(C(=O)N2CCN(C(=O)C3=Cc4cc(OC)c(OC)cc4CC3)CC2)c1
Reply: 166 to 167 °C

Ask: Input O=C(O)c1cccc(C(=O)O)c1Nc1cccc(I)c1
Reply: 214 to 216 °C

Ask: Input C=C1C(=C)C2OC1C1=C2Cc2c(OC)ccc(OC)c2C1
Reply: 177 to 178 °C

Ask: Input CN(C)C[C@H]1CCSc2ccccc2[C@]1(O)c1cccc(O)c1 (racemic)
Reply: 188 to 190 °C

Ask: Input COC(=O)c1cccc(C(=O)N(C)c2ccc3c(=O)n4c(nc3c2)C(=Cc2ccccc2)CC4)c1
Reply: 200 to 202 °C

Ask: Input O=C(O)c1cc(Cl)ccc1NC(=O)C(CS)Cc1ccccc1 (configuration not stated)
Reply: 157 to 158 °C

Ask: Input COc1cc(Nc2c(C#N)cnc3cc(/C=C/C(=O)N4CCN(C)CC4)sc23)c(Cl)cc1Cl
Reply: 218 to 220 °C

Ask: Input Cc1cccc(C)c1OCC(C)NCC(O)c1cc(C(N)=O)cs1 (configuration not stated)
Reply: 125 to 137 °C

Ask: Input N#Cc1ccc(C2=NOC3(CCN(C(=O)CCCC(=O)O)CC3)C2)cc1
Reply: 183 to 185 °C

Ask: Input CC(C)(C)C(=O)OC1CCCCC1=O (configuration not stated)
Reply: 35 to 36 °C

Ask: Input NC(Cc1c(Cl)cccc1Cl)=NO
Reply: 172 to 173 °C

Ask: Input CCN1CC(COS(=O)(=O)c2ccc(C)cc2)Oc2ccccc21 (configuration not stated)
Reply: 85 to 87 °C

Ask: Input O=C(Oc1ccccc1)N1CCC(S(=O)(=O)c2ccccc2F)CC1
Reply: 160 to 161 °C

Ask: Input CC(=O)N[C@@H](C)c1ccc(CO)cc1
Reply: 103 to 104 °C
